Biological target: T1, PUF4 RNA-binding domain (Saccharomyces cerevisiae, UniProt P25339 537-888)
T1 sequence: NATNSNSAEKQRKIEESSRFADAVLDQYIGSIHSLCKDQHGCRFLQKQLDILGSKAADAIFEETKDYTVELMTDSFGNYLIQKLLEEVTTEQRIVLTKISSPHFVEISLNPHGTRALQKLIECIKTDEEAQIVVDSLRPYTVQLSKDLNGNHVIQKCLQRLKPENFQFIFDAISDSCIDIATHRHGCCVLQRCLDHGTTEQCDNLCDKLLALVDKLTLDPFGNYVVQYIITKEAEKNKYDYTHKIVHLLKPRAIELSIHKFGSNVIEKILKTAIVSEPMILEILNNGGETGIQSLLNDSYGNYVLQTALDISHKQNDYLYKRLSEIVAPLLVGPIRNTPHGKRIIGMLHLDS
Assay: Mg; RNA-MaP; 20 mM Na-HEPES pH 7.4, 30 mM KOAc, 0.75 mM MgCl2, 0.1% Tween-20, 5% glycerol, 0.1 mg/mL BSA, 2 mM DTT; 25 C; 0.0125-409.6 nM protein
Settings: tags: N-His6-TEV cleaved; C-SNAP kept, Cy3B-labelled; label: tethered on chip by stalled RNA polymerase
REPORTED METRIC: Kd

Solved cases below.
- BINDER: "UCUCUUUCUACACUAUUAUUUCUCUU (ssRNA) [Id_iii_S1_P4E.7_K4.3_C4.3_H4.3_A4.1_F4.1_T4.2_[G10T]]"
  OBS VALUE: "> 2300 nM"
- BINDER: "UCUCUUUGUAUUCUCAUUAUCUCUU (ssRNA) [Ie_S1_P5E.1_K5.1_C5.1_H5.1_A5.1_[+6CTC]_F5.1_T5.1]"
  OBS VALUE: "33.8 nM"
- BINDER: "Ic_S2_P4E.1_K4.1_C4.1_H4.1_A4.1_[T5A]_F4.1_[T8G]_[A9T]_T4.1 (ssRNA) RNA: UUUGAUUAAUAUGAUAUCGUUCUUUCUUGUAAAUGUUUCUUUCUCGAUAUCAUAUUAAUCUUU"
  OBS VALUE: "164 nM"
- BINDER: "ACAAACAAACACUUAUUAAAACAAAC (ssRNA) [Id_ii_S3_P5E.4_K5.3_C5.2_[C-2A]_[T-1A]_H5.3_A5.1_F5.1_T5.2_[T11A]]"
  OBS VALUE: "> 2300 nM"
- BINDER: "UCUCUUUGUCGAUUAUCUCUU (ssRNA) [Ib_S1_P4E.1_K4.1_C4.1_H4.1_[A4C]_A4.1_[T5G]_F4.1_T4.1]"
  OBS VALUE: "336 nM"
- BINDER: "UCUCUUUGUACGUCUUUCUCUU (ssRNA) [Ic_S1_P5E.1_K5.1_C5.1_H5.1_A5.1_[T5C]_[T6G]_[A7T]_F5.1_[T8C]_[A10T]_T5.1]"
  OBS VALUE: "425 nM"
- BINDER: "UCUCUUAUUGUAUAUAAUUCUCUU (ssRNA) [Id_ii_S1_P3E.2_K3.1_C3.2_[C-2A]_H3.1_A3.1_F3.1_T3.2_[T9A]_[A10T]]"
  OBS VALUE: "12.2 nM"
- BINDER: "UCUCUUAUACACUAUAGCUCUCUU (ssRNA) [Id_ii_S1_P3E.4_K3.3_C3.2_[C-2A]_H3.3_A3.1_F3.1_T3.2_[T9G]_[A10C]]"
  OBS VALUE: "45.7 nM"

// below: Kd requested for another binder
Input line: What value of measured Kd is listed for UCUCUUUUUUGUAUAUAUAUCUCUU (ssRNA) [Id_iii_S1_P3E.5_K3.1_C3.3_[C-2T]_H3.1_A3.1_F3.1_T3.2] ?
Output line: 6.24 nM
